- testMethodNotes: small-molecule microarray binders of probe aXIP, primary screen, biochemical, NeuroSMM set, 635/667 nm fluorescence (AID 1119);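 note: probe is the protein aXip251-270 applied at 1 µg/mL to compound-printed slides; binding of probe to printed compounds measured as 667 nm fluorescence plus signal to noise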
- conditionParameters: higher = more signal, called active from +8 up or from −8 down
Dear colleague, classification is by composite Z-score, with ranges listed here: lower level: < 0.03; middle level: ≥ 0.03 and < 0.6; upper level: ≥ 0.6

# molecule, labelValue
rows = [
    ("COc1cc2c(cc1OC)CN(C(=O)[C@@H]1[C@H]3C(=O)O[C@H](c4ccccc4)[C@H](c4ccccc4)N3[C@H](c3ccc(O)cc3)[C@@]13C(=O)Nc1ccc(C#CCCO)cc13)CC2", "middle level"),
    ("CCOC(=O)C[C@H]1[C@H](OC(=O)c2ccccc2-c2ccccc2)[C@@H](NC(=O)c2ccccc2)c2cc(OCCCO)ccc2N1C(=O)c1ccccc1", "lower level"),
    ("[N-]=[N+]=Nc1ccccc1[C@@H]1OC(c2ccc(OCCCO)cc2)=N[C@]1(Cc1ccccc1)C(=O)NCc1ccccc1", "lower level"),
    ("COc1ccc([Si](C)(C)[C@@H]2[C@@H](CC(=O)N3Cc4ccccc4C[C@H]3CO)O[C@]3(C(=O)N(Cc4ccc(N5CCC5=O)cc4)c4ccccc43)[C@H]2C)cc1", "lower level"),
    ("CC=CC(O)C1C=CC2C(=O)NC(=O)C2N1Nc1ccccn1 (stereo unspecified)", "middle level"),
]

*Q* In plain terms, what class is Cc1ccc(N2C(=O)c3ccccc3[C@](C)(C(=O)NCc3ccccc3)[C@@H]2c2ccc(CO)cc2)nc1 ?
*A* lower level

*Q* In plain terms, what class is [N-]=[N+]=NCc1ccccc1C[C@@]1(C(=O)N2CCCCC2)N=C(c2ccc(OCCCO)cc2)O[C@@H]1c1ccccc1CN=[N+]=[N-] ?
*A* middle level

*Q* In plain terms, what class is C=CCC(OC(C)=O)[C@@H]1[C@@H](N(Cc2cccc3ccccc23)C(=O)c2ccc(-c3ccccc3)cc2)c2cc(OCCCO)ccc2N1C(=O)c1ccc(-c2ccccc2)cc1 (stereo partly specified) ?
*A* lower level

*Q* In plain terms, what class is COc1ccc(NC(=O)O[C@H]2[C@@H]3OC(=O)[C@H](Cc4cccc(Br)c4)C/C=C/C[C@@H](Cc4cccc(Br)c4)C(=O)O[C@H]3[C@@H](OC)O[C@@H]2CO)cc1 ?
*A* upper level

*Q* In plain terms, what class is O=C1C[C@@](C(=O)NCC(F)(F)F)(c2ccc([N+](=O)[O-])cc2)[C@@H](c2ccc(CO)cc2)N1CC12CC3CC(CC(C3)C1)C2 ?
*A* upper level

*Q* In plain terms, what class is O=c1cccc(-c2ccc(F)cc2)o1 ?
*A* lower level

*Q* In plain terms, what class is C[C@]1(C(=O)O)c2ccccc2C(=O)N(Cc2ccc(OC(F)(F)F)cc2)[C@H]1c1ccc(CO)cc1 ?
*A* middle level

This collection of values is drawn from PubChem BioAssay.
